# Lookup of reported normalized growth keyed by entry
test: chemical genetic growth profiling, strain panel (AID 1159580);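 note: tested at 20 µM; growth read once vehicle control cultures reached saturation at 30 °C; 1 = growth at the plate median or of vehicle wells; lower values mean less growth of the strain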; settings: S. cerevisiae deletion strains, growth OD, locus YCL061C, strain MRC1, stronger effect = lower value
In all, about 5,500 compounds went through this assay and about 2,000 (36%) were called active. Another 18% or so got no clear call; they are omitted. The list shows a part of the results.
Write the number on its own, no unit after it.

{"columns": ["molecule", "attribute_measured", "result_number"],
 "data": [
  ["O=C(NC(Cc1cc(=O)[nH]c2ccccc12)C(=O)O)c1ccc(Cl)cc1 (stereo unspecified)", "normalized growth", 0.994]
]}

Give normalized growth for the following molecule: CN(Cc1cc(Br)cc(Br)c1N)C1CCCCC1 1.01

Give normalized growth for the following molecule: Cc1ccc(C(C)C)cc2c(C)ccc1-2 1.01

Give normalized growth for the following molecule: C#C[C@]1(O)CCC2C3CCc4cc(O)ccc4C3CC[C@@]21C (stereo partly specified) 0.968

Give normalized growth for the following molecule: CC1(C)O[C@@H]2CC3C4CCC5=CC(=O)C=C[C@]5(C)C4[C@@H](O)C[C@]3(C)[C@]2(C(=O)CO)O1 (stereo partly specified) 0.999

Give normalized growth for the following molecule: C[C@]12CCC3c4ccc(OS(=O)(=O)O)cc4CCC3C1CCC2=O (stereo partly specified) 1.01
